Measured Tm by item
- method: melting temperature; fluorescence melt of hairpins on a sequencing array, two-state fit, raised by 9.35 °C to match UV melts
- setup conditions: sodium 0.088 M

{"columns": ["biopolymer sequence", "Tm [°C]"],
 "data": [
  ["GTTCTTCGAAAGAATAAC (((.(((....))).)))", 33.6],
  ["GGCAGCGAAAGCTAGGCC ((((((....)))..)))", 55.3],
  ["GCGGAGGCCGC ((((...))))", 58.9],
  ["GTCAATCGAAAGATGAC (((.(((....))))))", 45.9],
  ["GCATTGCGAAAGCATCGC ((..(((....)))..))", 52.9],
  ["GCGGTCGAAAGACTACGC ((((((....)))..)))", 54.3],
  ["GGCGGCGAAAGCCAAGCC ((((((....)))..)))", 63.9],
  ["GATCGGCAATCCGATC ((((((....))))))", 55],
  ["GCAAGCCGAAAGGCGTGC (((.(((....))).)))", 68.7],
  ["GCGAGTGGAAACACTCAC (.(((((....))))).)", 45.7],
  ["GAGGTTGGAAACAACTTC ((.((((....)))).))", 43.4],
  ["GCGACCGAAAGGTCCCGC ((((((....)))..)))", 42.1],
  ["GCAAGGCGAAAGCTTCGC ((.(.((....)).).))", 40.9],
  ["GTGGCAGCGAAAGCTCAC (((..(((....))))))", 43.7],
  ["GGAAATGGAAACATTCCC ((.((((....)))).))", 33.1],
  ["GCGCGGCGAAAGCCCCGC (((.(((....))).)))", 59.4],
  ["GGATTGGGAAACCAGTCC (((.(((....))).)))", 46.9],
  ["GACTGTGGAAACATAGTC ((((.((....)).))))", 45.2],
  ["GGGTGCGAAAGCACTCCC ((((((....)))..)))", 53.5],
  ["GCTTCCCGAAAGGGGAGC (((.(((....))).)))", 65.5],
  ["GTCTTGGGAAACCAAGAC (((((((....)))))))", 62.1],
  ["GTCGTATCGAAAGATGAC (((..(((....))))))", 34.1],
  ["GATCTGGCCGCAGATC ((((((....))))))", 52.3],
  ["GTCGTAGAAATACGAC ((((((....))))))", 56],
  ["GCGAACGAAAGTTGTCGC ((((((....)))..)))", 44.1],
  ["GTCGTCGAAAGACGGGAC ((((((....)))..)))", 41.4],
  ["GCCCCCCCGAAAGGGGGC (((..(((....))))))", 65.2],
  ["GGACAGGGAAACCTGTTC (.(((((....))))).)", 50],
  ["GCGTAGCGAAAGCGCCGC (((..((....))..)))", 59.7],
  ["GATCCGCGGCGGATC ((((((...))))))", 57.7],
  ["GCTGCATCGAAAGATAGC (((..(((....))))))", 35.6],
  ["GATCGAGAGGTCGATC ((((((....))))))", 50.1],
  ["GCATCGCGAAAGCGCCGC ((..(((....)))..))", 38],
  ["GCTTTAGGAAACTAGAGC (((.(((....))).)))", 35.4],
  ["GATCGGTAGTCCGATC ((((((....))))))", 55.6],
  ["GATCTCGATAGAGATC ((((((....))))))", 66.8],
  ["GTGTTCGGAAACGAACGC (.(((((....))))).)", 59.6],
  ["GTCGAAGGAAACTTTGGC (.(.(((....))).).)", 29.9],
  ["GACGGGGAAACCCGTC ((((((....))))))", 68],
  ["GTCGGGCCGAAAGGCGAC (((..(((....))))))", 51],
  ["GATCAATTGTTGATC ((((((...))))))", 41.5],
  ["CGATGTCGGAAACGATCG (((..(((....))))))", 36.2],
  ["GACGCCGGAAACGGCGCC (.(((((....))))).)", 56.9],
  ["GTTGGTCGAAAGACTAAC (((.(((....))).)))", 50.9],
  ["GCAGAAGGAAACTTCCGC ((.((((....)))).))", 37.5],
  ["GGAGTACCGAAAGGTTCC (((..(((....))))))", 36.3],
  ["GCGTAGAACGC ((((...))))", 54.6],
  ["GATACGGGAAACTGTATC (((((.(....).)))))", 43.8],
  ["GGACCTCGAAAGAGTCC (((.(((....))))))", 49.8],
  ["CGCGGACTAATCCGCG ((((((....))))))", 65.9]
]}

* * *

- method: folding enthalpy; higher = less favourable; fluorescence melt of hairpins on a sequencing array, two-state fit
- setup conditions: sodium 0.088 M
Kindly return Y if reported folding enthalpy is no lower than -20 kcal/mol; return N if it is lower.

{"columns": ["biopolymer sequence", "class name"],
 "data": [
  ["GGCCCCTCGAAAGAGGCC (((..(((....))))))", "Y"],
  ["GCTGCGCGAAAGCGAGC (((.(((....))))))", "Y"],
  ["GCACCGCGAAAGCTGTGC ((((.((....)).))))", "N"],
  ["GCGTTCGCACGC ((((....))))", "Y"],
  ["GCGTTCGACGC ((((...))))", "N"],
  ["GGAATGACGAAAGTCTCC (((..(((....))))))", "Y"],
  ["GGTCCAGGAAACCGAACC (((.(.(....).).)))", "Y"],
  ["GCGATTGATCGC ((((....))))", "N"],
  ["GGTCTGCGAAAGCATACC (((.(((....))).)))", "N"],
  ["GATTCCCGAAAGGGTATC (((.(((....))).)))", "N"],
  ["CGAGACGGAAACGTTTCG (((.(((....))).)))", "N"],
  ["GCGTTGCGAAAGCAGGGC ((..(((....)))..))", "N"],
  ["GATCTACCTGTAGATC ((((((....))))))", "N"],
  ["GATCCGTGGCGGATC ((((((...))))))", "N"],
  ["GCGAAGTCTCGC ((((....))))", "Y"],
  ["GATCAGACATCTGATC ((((((....))))))", "N"],
  ["GCGGCTGGAAACAGTCGC (((.(((....))).)))", "N"],
  ["GCTAGGCGAAAGCTTTGC ((.(.((....)).).))", "Y"],
  ["GGGCTACGAAAGTATCCC (((.(((....))).)))", "N"],
  ["GCCTTGCGAAAGCCAAGC ((.(.((....)).).))", "Y"],
  ["GGGAAAGCGAAAGCTCCC (((..(((....))))))", "N"],
  ["GATCATGAACATGATC ((((((....))))))", "N"],
  ["GATAGGGGAAACCTTATC ((((.((....)).))))", "N"],
  ["GTGAGGTCGAAAGACCAC (((..(((....))))))", "Y"],
  ["GTAGCCGAAAGGCGTAC ((((((....))).)))", "Y"]
]}

* * *

Measured Tm by item
- method: melting temperature; fluorescence melt of hairpins on a sequencing array, two-state fit, raised by 9.35 °C to match UV melts
- setup conditions: sodium 0.088 M

{"columns": ["biopolymer sequence", "output unit", "Tm"],
 "data": [
  ["GGTGCCGAAAGGCTGACC ((((((....)))..)))", "°C", 46.8],
  ["GCATCCGAAAGGAGGTGC ((((((....)))..)))", "°C", 48.1],
  ["GCCGCATCGAAAGATGGC (((..(((....))))))", "°C", 46.9],
  ["GATCTAATGCTAGATC ((((((....))))))", "°C", 36.5],
  ["GATCTGCAAACAGATC ((((((....))))))", "°C", 48.5],
  ["GCGTGGTTACGC ((((....))))", "°C", 54.9],
  ["GCTAGGAAACTAGC (((((....)))))", "°C", 50.8],
  ["GATCATCATATGATC ((((((...))))))", "°C", 47.2],
  ["GATGGTGGAAACACCGTC ((.((((....)))).))", "°C", 53.6],
  ["GAAACCCGAAAGGGGTTC (((.(((....))).)))", "°C", 59.2],
  ["GAGTGTACGAAAGTACTC (((..(((....))))))", "°C", 32.8],
  ["GATCTACCTATAGATC ((((((....))))))", "°C", 40.5]
]}
